tested on: wheat germ agglutinin (Triticum aestivum), Alexa647-labelled; assay: Alexa647-WGA lectin binding to printed small molecules – biochemical, small-molecule microarray, 635/667 nm fluorescence, artefact control for SMM control-protein annotation, profiling panel (AID 1140); conditions: WGA-A647 binding, 635 nm fluorescence, higher = more signal;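 note: score merges 667 nm feature emission with signal to noise over triplicate slides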
metricName: composite z-score

Previously resolved entries follow.
smilesData	composite z-score
CCOC(=O)C[C@H]1[C@H](OC(=O)c2ccccc2-c2ccccc2)[C@@H](NC(=O)c2ccccc2)c2cc(OCCCO)ccc2N1C(=O)Cc1ccc(OC)cc1	0.564
COc1ccc(CCNC(=O)[C@@H]2c3ccccc3C(=O)N(Cc3ccccc3C(F)(F)F)[C@H]2c2ccc(CO)cc2)cc1	0.665
O=C(N1CCOCC1)[C@@]1(CCS(=O)(=O)c2ccccc2)COC(c2ccc(OCCCO)cc2)=N1	-0.204
[N-]=[N+]=Nc1ccccc1[C@H]1OC(c2ccc(OCCCO)cc2)=N[C@@]1(Cc1ccccc1)C(=O)NCc1ccccc1	0.415
Cc1ccc(F)cc1S(=O)(=O)N[C@@H]1CCN(C(=O)c2ccc(OC(C)C)cc2)C1	0.557

Exam item: composite z-score lookup needed for `C=C[C@@H](O)[C@H]1CC(c2ccccc2)=NO1` , thanks.
Marked response: -0.288

Exam item: `COc1ccc(C(=O)Nc2ccc(CN3C(=O)[C@@]4(O[C@@H](CC(=O)N5Cc6ccccc6C[C@H]5CO)[C@H]([Si](C)(C)c5ccc(OC)cc5)[C@H]4C)c4ccccc43)cc2)cc1` ?
Marked response: 0.365

Entry source: PubChem BioAssay
